# TESTED_SYSTEM: human ether-à-go-go-related gene (hERG) potassium channel (human, UniProt Q12809);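 note: peak tail current of the secondary pulse compared with the same well before compound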
# Sequence (Q12809 whole entry, looked up): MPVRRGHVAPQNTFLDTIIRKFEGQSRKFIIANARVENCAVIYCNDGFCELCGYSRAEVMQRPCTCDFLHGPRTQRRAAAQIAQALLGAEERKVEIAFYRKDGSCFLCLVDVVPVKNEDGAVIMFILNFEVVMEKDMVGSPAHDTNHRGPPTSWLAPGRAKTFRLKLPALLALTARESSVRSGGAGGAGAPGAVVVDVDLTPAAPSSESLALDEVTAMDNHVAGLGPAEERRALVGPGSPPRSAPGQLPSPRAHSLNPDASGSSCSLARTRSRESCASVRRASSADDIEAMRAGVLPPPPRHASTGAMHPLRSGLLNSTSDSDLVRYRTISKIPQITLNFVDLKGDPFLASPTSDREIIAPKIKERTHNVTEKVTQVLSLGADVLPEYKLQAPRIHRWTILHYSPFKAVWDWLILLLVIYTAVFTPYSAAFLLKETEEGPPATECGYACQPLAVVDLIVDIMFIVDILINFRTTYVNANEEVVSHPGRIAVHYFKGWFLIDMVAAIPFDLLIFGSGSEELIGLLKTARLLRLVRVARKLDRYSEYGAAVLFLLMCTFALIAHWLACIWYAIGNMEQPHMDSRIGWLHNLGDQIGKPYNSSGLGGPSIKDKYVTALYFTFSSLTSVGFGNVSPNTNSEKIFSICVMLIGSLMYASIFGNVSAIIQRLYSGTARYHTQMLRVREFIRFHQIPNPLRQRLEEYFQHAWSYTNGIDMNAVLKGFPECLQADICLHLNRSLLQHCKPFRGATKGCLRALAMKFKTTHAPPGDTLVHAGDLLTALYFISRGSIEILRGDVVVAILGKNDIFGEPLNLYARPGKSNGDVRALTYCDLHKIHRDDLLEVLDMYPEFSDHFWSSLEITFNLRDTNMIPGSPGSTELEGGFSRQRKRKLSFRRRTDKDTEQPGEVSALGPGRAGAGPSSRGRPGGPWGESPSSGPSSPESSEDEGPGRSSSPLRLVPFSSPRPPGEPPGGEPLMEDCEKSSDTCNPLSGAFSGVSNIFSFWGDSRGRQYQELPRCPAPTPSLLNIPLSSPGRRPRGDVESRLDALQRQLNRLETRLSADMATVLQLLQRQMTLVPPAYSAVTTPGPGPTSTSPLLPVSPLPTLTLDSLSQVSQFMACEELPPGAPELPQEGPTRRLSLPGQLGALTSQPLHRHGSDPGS
# EXPERIMENTAL_DETAILS: primary screen, population patch clamp on CHO cells stably expressing hERG; higher = less effect of the substance
Among all 310,000 compounds or so, about 14,000 (4.5%) showed an effect of 50% or more. The effect is printed as a negative number. For the sample, strong results were picked, then their nearest neighbours and some compounds at random.
EXPERIMENTAL_READOUT: hERG current change (%, negative = inhibition) at 10uM (%)
Give bare numbers, in %.

Guide cases for hERG current change (%, negative = inhibition) at 10uM, answers given:
Cc1ccc(C)c(S(=O)(=O)N2CCN(C(=O)CCc3nc4ccccc4c(=O)[nH]3)CC2)c1 = -47.1
O=C(CSc1nnc2c(Cl)cc(C(F)(F)F)cn12)NCc1ccc(F)cc1 = -4.27
O=C(CCc1nc2ccccc2c(=O)[nH]1)N1CCN(S(=O)(=O)c2ccc(F)cc2)CC1 = -27.6
O=C(CCc1nc2ccccc2c(=O)[nH]1)N1CCN(c2ccc(F)cc2)CC1 = -68
Cc1ccc(/C(=C\CN2CCCC2)c2ccccn2)cc1.Cl = -55.4

For every item below, please supply its hERG current change (%, negative = inhibition) at 10uM.
1. CC(C)(C)C(=O)NC1CCN(C(=O)N2CCCC2)CC1
2. Cc1ccc(CN2CCN(Cc3cnc(N(C)C)s3)CC2CCO)o1 (stereo not shown)
3. Cc1nc2c3ccccc3nc(NNC(=O)CCC(=O)N3CCN(c4ccc(F)cc4)CC3)n2n1
4. Cc1ccc(C(=O)NCCCNC(=O)c2ccccn2)cc1

1. 10.2
2. 6.05
3. -53.2
4. 5.5

All figures here come from paper PMC4336329.
